molecular target: Potassium voltage-gated channel subfamily KQT member 1 (Homo sapiens); test: inhibitors of human KCNQ1 channel, primary screen, cell-based, thallium flux, high-throughput (AID 2642); conditions: CHO-K1 KCNQ1, FluxOR thallium flux fluorescence, at 10 µM; active compounds read high;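 also: channel opened by potassium depolarization with thallium stimulus after 20 min compound exposure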
Screen size: about 310,000 compounds; about 3,900 (1.3%) were called active. Many of the other results were omitted from the sample, so actives are more common in it than they were.
testReadout: B-score

// worked examples, B-score included
compound	B-score
CCC(C)[C@H](NC(=O)N1c2ccccc2NC(=O)[C@@H]1C(C)C)C(=O)N[C@@H](Cc1ccccc1)C(=O)O (some centres not stated)	inactive
NC(=O)c1cc(-c2cccnc2)nc2ccc(Br)cc12	inactive
CCOC(=O)c1c(NC(=O)CSc2cn(CC)c3ccccc23)sc2c1CCC2	inactive
O=c1c2c(nc3cc(-c4cccc(Cl)c4)[nH]n13)CCCC2	inactive
O=C(O)c1ccccc1-c1ccccc1C(=O)Nc1ccccc1Br	inactive
COc1cc(CN2CCNC(=O)C2CC(=O)NCCc2ncccc2C)cc(OC)c1 (configuration not stated)	inactive
Brc1ccc(C2CC(c3ccccc3)=Nc3ccccc3N2)cc1 (configuration not stated)	10 (active)
COc1cc(/C=C(\C#N)c2nc3ccccc3[nH]2)ccc1O	9 (active)
O=C1CCc2cc(S(=O)(=O)N3CCC(C(=O)NCc4ccccc4Cl)CC3)ccc2N1	8 (active)
COc1ccc(/C=C(/NC(=O)c2ccc(C)cc2)c2nc3ccccc3[nH]2)cc1OC	inactive

Ask: For Potassium voltage-gated channel subfamily KQT member 1 (Homo sapiens), give B-score of the listed compound: COc1ccc(OC)c(C(=O)NC(CC(N)=O)c2ccc(N3CCC(N4CCCCC4)CC3)c([N+](=O)[O-])c2)c1 (configuration not stated)
Result: inactive

Ask: For Potassium voltage-gated channel subfamily KQT member 1 (Homo sapiens), give B-score of the listed compound: `O=C(CNS(=O)(=O)c1ccccc1)N1CCN(C(=O)c2ccco2)CC1`
Result: inactive

Ask: For Potassium voltage-gated channel subfamily KQT member 1 (Homo sapiens), give B-score of the listed compound: CCOC(=O)C1CCc2nc3ccccc3c(=O)n21 (configuration not stated)
Result: inactive

Ask: For Potassium voltage-gated channel subfamily KQT member 1 (Homo sapiens), give B-score of the listed compound: `CCc1cc(=O)oc2cc(C)cc(OCC(=O)N3CCC[C@@H]3C(=O)O)c12`
Result: inactive

Ask: For Potassium voltage-gated channel subfamily KQT member 1 (Homo sapiens), give B-score of the listed compound: CCC(=O)c1ccc(OCC(O)Cn2nc(C)c(C(C)=O)c2C)cc1 (configuration not stated)
Result: inactive

Ask: For Potassium voltage-gated channel subfamily KQT member 1 (Homo sapiens), give B-score of the listed compound: `O=S(=O)(c1ccccc1)N1CCc2ccccc21`
Result: inactive

Ask: For Potassium voltage-gated channel subfamily KQT member 1 (Homo sapiens), give B-score of the listed compound: `O=C(Nn1c(-c2ccccc2)nc2ccccc2c1=O)c1ccc([N+](=O)[O-])cc1`
Result: inactive

Ask: For Potassium voltage-gated channel subfamily KQT member 1 (Homo sapiens), give B-score of the listed compound: CCOC(=O)c1c(NC(=O)C(C)Sc2c[nH]c3ccccc23)sc2c1CCC2 (configuration not stated)
Result: 12 (active)

Ask: For Potassium voltage-gated channel subfamily KQT member 1 (Homo sapiens), give B-score of the listed compound: `Cc1nn(C)cc1N1C(=O)c2cccc3c(N)ccc(c23)C1=O`
Result: 22 (active)

Ask: For Potassium voltage-gated channel subfamily KQT member 1 (Homo sapiens), give B-score of the listed compound: `CC(C)(C)C(=O)N(Cc1ccccc1)c1ccccn1`
Result: inactive

Ask: For Potassium voltage-gated channel subfamily KQT member 1 (Homo sapiens), give B-score of the listed compound: `O=C1CCC(=O)N1c1ccc(NCCc2ccccc2F)c([N+](=O)[O-])c1`
Result: inactive

Ask: For Potassium voltage-gated channel subfamily KQT member 1 (Homo sapiens), give B-score of the listed compound: Cc1cc(C)c(NC(=S)N2CCCC2C(=O)O)c(C)c1 (configuration not stated)
Result: inactive
